Test system: BV-2
Experiment: Cytotoxicity against mouse BV2 cells assessed as reduction in cell viability at 20 uM after 24 hrs by XTT assay
Type: cell-based
Conditions: bv-2, 24 h
MEASURED_ENDPOINT: Activity

>>> print(df.to_string())
                           smiles_structure  reported_result
0          COc1ccc(CNS(=O)(=O)c2ccccc2I)cc1        Non-Toxic
1  COc1ccc2c(=O)c(C3=Cc4ccccc4S(=O)(=O)N3C)coc2c1        Non-Toxic
2                      CNS(=O)(=O)c1ccccc1I        Non-Toxic
3              O=S(=O)(Nc1ccccc1)c1ccccc1Br        Non-Toxic
4  COc1ccc2c(=O)c(-c3ccc(N4C(c5ccccc5)=Cc5ccccc5S4(=O)=O)cc3)coc2c1            Toxic

Output measured Activity for this item: COc1ccc2c(=O)c(-c3ccc(NS(=O)(=O)c4ccccc4Br)cc3)coc2c1 Non-Toxic

Give recorded Activity. COc1ccc(-c2coc3cc(O)cc(O)c3c2=O)cc1 Non-Toxic

Quote Activity reported for O=S(=O)(Nc1ccccc1)c1ccccc1I please. Non-Toxic

Supply reported Activity belonging to this molecule: COc1ccc2c(=O)c(C3=Cc4ccccc4S(=O)(=O)N3)coc2c1 Toxic

Identify measured Activity corresponding to COc1ccc2c(=O)c(C3=Cc4ccccc4S(=O)(=O)N3c3ccccc3)coc2c1 Non-Toxic

Item COc1ccc2c(=O)c(-c3ccc([N+](=O)[O-])cc3)coc2c1 : provide Activity Non-Toxic

Answer with reported Activity of COc1ccc2c(=O)c(-c3ccc(N)cc3)coc2c1 Non-Toxic
